# Target Entity: recombinant human KRAS^G12D protein (Homo sapiens, UniProt P01116, G12D)
# Sequence (P01116 1-188 isoform P01116-2 G12D): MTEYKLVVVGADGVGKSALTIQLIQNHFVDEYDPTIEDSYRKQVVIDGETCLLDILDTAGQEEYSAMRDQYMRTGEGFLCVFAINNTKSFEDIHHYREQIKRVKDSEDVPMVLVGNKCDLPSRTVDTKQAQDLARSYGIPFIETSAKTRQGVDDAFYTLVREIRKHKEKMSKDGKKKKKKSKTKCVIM
# Protocol Description: Temperature-dependent Fluorescence (TdF) KRAS G12D protein binding assay
# Setup Conditions: 6 μM KRAS^G12D protein, 10 μM compound, Sypro Orange; Kd calculated from the fluorescent shift
Recorded Kd by entry
Measured Endpoint: Kd

compound=Cc1cc(-c2c(Cl)cc3c(N4CC5CCC(C4)N5)nc(OC[C@@H]4CCCN4C)nc3c2F)cc2[nH]ncc12 measured_endpoint=Kd result="> 5 µM"
compound="Oc1cc(-c2c(Cl)cc3c(N4CC5CCC(C4)N5)nc(OC[C@@]45CCCN4C[C@H](F)C5)nc3c2F)c2ccccc2c1 (single isomer, unassigned) [Compound 107]" measured_endpoint=Kd result="< 0.5 µM"
compound="Oc1cc(-c2c(Cl)cc3c(N4CC5CCC(C4)N5)nc(OC[C@]45CCCN4C[C@@H](F)C5)nc3c2F)c2ccccc2c1 (single isomer, unassigned) [Compound 106]" measured_endpoint=Kd result="< 0.5 µM"
compound=Nc1cccc(F)c1-c1c(Cl)cc2c(N3CCNCC3)nc(OCC34CCCN3CCC4)nc2c1F measured_endpoint=Kd result="> 5 µM"
compound=CN1CCC[C@H]1COc1nc(N2CC3(CCNC3)C2)c2cc(Cl)c(-c3cc(O)cc4cccc(Cl)c34)c(F)c2n1 measured_endpoint=Kd result="> 5 µM"
compound=Fc1c(-c2cccc3cccc(Cl)c23)c(Cl)cc2c(N3C4CCC3CNC4)nc(OCC34CCCN3CCC4)nc12 measured_endpoint=Kd result="0.5 to 5 µM"
